system: U251 CNS; assay: NCI tumour cell line growth inhibition, 48 h

| compound | TGI |
| --- | --- |
| Nc1nc(N)c2cc(Sc3cccc(C(F)(F)F)c3)ccc2n1 | 4.78 µM |
| C[N+]1(CCC[N+]2(C)CC3C4C=CC(CC4)C3C2)CCOCC1 (stereo unspecified) | > 100 µM |
| CC(C)/C(=N\[N+](C)(C)C)c1ccccc1 | > 100 µM |
| N#CN1CC[C@H](C(=O)Nc2cc3cc(C(N)=O)ccc3cn2)C1 | 38.4 µM |
| CCOc1ccc(O)cc1[P+](c1ccccc1)(c1ccccc1)c1ccccc1 | 15 µM |
| COc1cccc(C2C3=C(COC3=O)N(CCO)c3cc4c(cc32)OCO4)c1 (stereo unspecified) | > 50 µM |
| CC1C2=C(CCCC2=O)N(c2ccc(Cl)cc2)C2=C1C(=O)CCC2 | > 100 µM |
| COc1cc(-n2ccnc2)cc(OC)c1OC | > 100 µM |
| O=S(=O)(/N=C(\NO)Nc1ccc(Cl)cc1)c1ccccc1 | > 100 µM |
| O=C(Nc1cc(Oc2cc(F)c(NC(=O)C3(C(=O)Nc4ccc(F)cc4)CC3)cc2F)ccn1)C1CC1 | > 46.3 µM |
| NC(=Nc1ccc(N)cc1)C(N)=Nc1ccc(N)cc1 | > 100 µM |
